test system: 931267-113-T-J1-PDC KRAS spheroid with HUVEC/MSC, viability; assay: Anticancer human tumor 931267-113-T-J1-PDC patient-derived colon adenocarcinoma cell line growth inhibition [KRAS2]; settings: second compound 3.16 µM; first compound 0.0316 µM; active = viability on the fitted dose curve at most 10% of control; inactive = the rest;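 also: compound exposure lasted 7 days before the readout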
Classes used: Y = active, N = inactive

compound	system.under.test	label
CC(C)n1nc(-c2ccc3oc(N)nc3c2)c2c(N)ncnc21 + CC1OCC2(CCN(c3cnc(Sc4ccnc(N)c4Cl)c(N)n3)CC2)C1N	931267-113-T-J1-PDC KRAS spheroid with HUVEC/MSC, viability	N
CC1(C)CCC(CN2CCN(c3ccc(C(=O)NS(=O)(=O)c4ccc(NCC5CCOCC5)c([N+](=O)[O-])c4)c(Oc4cnc5[nH]ccc5c4)c3)CC2)=C(c2ccc(Cl)cc2)C1 + CNCc1ccccc1-c1csc(C(C)Nc2nc(C)nc3cc(OC)c(OC)cc23)c1	931267-113-T-J1-PDC KRAS spheroid with HUVEC/MSC, viability	Y
Cn1nccc1Nc1nccc(-c2cc3c(s2)C(C)(C)N(CCN2CCOCC2)C3=O)n1 + COc1cc2nc(C)nc(NC(C)c3cc(N)cc(C(F)(F)F)c3)c2cc1OC1CCOC1	931267-113-T-J1-PDC KRAS spheroid with HUVEC/MSC, viability	N
CCNC(=O)CC1N=C(c2ccc(Cl)cc2)c2cc(OC)ccc2-n2c(C)nnc21 (stereo unspecified) + CNCc1ccccc1-c1csc(C(C)Nc2nc(C)nc3cc(OC)c(OC)cc23)c1	931267-113-T-J1-PDC KRAS spheroid with HUVEC/MSC, viability	Y
CCN1CCN(Cc2ccc(Nc3ncc(F)c(-c4cc(F)c5nc(C)n(C(C)C)c5c4)n3)nc2)CC1 + CC1OCC2(CCN(c3cnc(Sc4ccnc(N)c4Cl)c(N)n3)CC2)C1N	931267-113-T-J1-PDC KRAS spheroid with HUVEC/MSC, viability	N
CN(C)C/C=C/C(=O)Nc1cc2c(Nc3ccc(F)c(Cl)c3)ncnc2cc1O[C@H]1CCOC1 + CNCc1ccccc1-c1csc(C(C)Nc2nc(C)nc3cc(OC)c(OC)cc23)c1	931267-113-T-J1-PDC KRAS spheroid with HUVEC/MSC, viability	N
O=C(c1cc(Cc2n[nH]c(=O)c3ccccc23)ccc1F)N1CCN(C(=O)C2CC2)CC1 + CNCc1ccccc1-c1csc(C(C)Nc2nc(C)nc3cc(OC)c(OC)cc23)c1	931267-113-T-J1-PDC KRAS spheroid with HUVEC/MSC, viability	Y
CC1(C)CCC(CN2CCN(c3ccc(C(=O)NS(=O)(=O)c4ccc(NCC5CCOCC5)c([N+](=O)[O-])c4)c(Oc4cnc5[nH]ccc5c4)c3)CC2)=C(c2ccc(Cl)cc2)C1 + C=CC(=O)N1CCN(c2nc(=O)n(-c3c(C)ccnc3C(C)C)c3nc(-c4c(O)cccc4F)c(F)cc23)C(C)C1	931267-113-T-J1-PDC KRAS spheroid with HUVEC/MSC, viability	N
CCNC(=O)CC1N=C(c2ccc(Cl)cc2)c2cc(OC)ccc2-n2c(C)nnc21 (stereo unspecified) + C=CC(=O)N1CCN(c2nc(=O)n(-c3c(C)ccnc3C(C)C)c3nc(-c4c(O)cccc4F)c(F)cc23)C(C)C1	931267-113-T-J1-PDC KRAS spheroid with HUVEC/MSC, viability	N
CN(C)C/C=C/C(=O)Nc1cc2c(Nc3ccc(F)c(Cl)c3)ncnc2cc1O[C@H]1CCOC1 + C=CC(=O)N1CCN(c2nc(=O)n(-c3c(C)ccnc3C(C)C)c3nc(-c4c(O)cccc4F)c(F)cc23)C(C)C1	931267-113-T-J1-PDC KRAS spheroid with HUVEC/MSC, viability	N
CC(=O)Nc1cccc(-n2c(=O)n(C3CC3)c(=O)c3c(Nc4ccc(I)cc4F)n(C)c(=O)c(C)c32)c1 + CNCc1ccccc1-c1csc(C(C)Nc2nc(C)nc3cc(OC)c(OC)cc23)c1	931267-113-T-J1-PDC KRAS spheroid with HUVEC/MSC, viability	Y
